Assay: Drug elimination in pig at 50 ppm
Type: ADME, organism-based, Sus scrofa
Details: in vivo, read-out: Drug excretion
Parameter: dose excreted (%)
Numeric answer only, unit % assumed.

input: Entry `COC(=O)N/N=C/c1c[n+]([O-])c2ccccc2[n+]1[O-]` : reported dose excreted = ?
output: 90

* * *

Tested on: Leishmania amazonensis
Test: Antileishmanial activity against Leishmania amazonensis
Assay type: functional, organism-based
Parameter: IC50

input: Entry `N#Cc1c(NC(=O)CCCCl)[n+]([O-])c2ccc(Cl)cc2[n+]1[O-]` : reported IC50 = ?
output: 700 nM

* * *

Test: Elimination half life in iv dosed rat
Assay type: ADME, organism-based
Conditions: in vivo, read-out: beta t1/2 (converted)
Parameter: half-life (min)
Numeric answer only, unit min assumed.

input: Entry C[C@@H](Oc1ccc(Oc2cnc3ccc(Cl)cc3n2)cc1)C(=O)O [R(+)XK469] : reported half-life = ?
output: 810

* * *

Test: Primary phase half life in im dosed goat
Type: ADME, organism-based, Capra hircus
Details: in vivo, read-out: alphat1/2 (converted)
Parameter: half-life (min)
Numeric answer only, unit min assumed.

input: Entry CC(=O)c1c(C)[n+]([O-])c2ccccc2[n+]1[O-] [MEQUINDOX] : reported half-life = ?
output: 16.8
